- systemTested: recombinant human ASK1 protein (Homo sapiens (Human))
- Sequence (Q99683 whole entry): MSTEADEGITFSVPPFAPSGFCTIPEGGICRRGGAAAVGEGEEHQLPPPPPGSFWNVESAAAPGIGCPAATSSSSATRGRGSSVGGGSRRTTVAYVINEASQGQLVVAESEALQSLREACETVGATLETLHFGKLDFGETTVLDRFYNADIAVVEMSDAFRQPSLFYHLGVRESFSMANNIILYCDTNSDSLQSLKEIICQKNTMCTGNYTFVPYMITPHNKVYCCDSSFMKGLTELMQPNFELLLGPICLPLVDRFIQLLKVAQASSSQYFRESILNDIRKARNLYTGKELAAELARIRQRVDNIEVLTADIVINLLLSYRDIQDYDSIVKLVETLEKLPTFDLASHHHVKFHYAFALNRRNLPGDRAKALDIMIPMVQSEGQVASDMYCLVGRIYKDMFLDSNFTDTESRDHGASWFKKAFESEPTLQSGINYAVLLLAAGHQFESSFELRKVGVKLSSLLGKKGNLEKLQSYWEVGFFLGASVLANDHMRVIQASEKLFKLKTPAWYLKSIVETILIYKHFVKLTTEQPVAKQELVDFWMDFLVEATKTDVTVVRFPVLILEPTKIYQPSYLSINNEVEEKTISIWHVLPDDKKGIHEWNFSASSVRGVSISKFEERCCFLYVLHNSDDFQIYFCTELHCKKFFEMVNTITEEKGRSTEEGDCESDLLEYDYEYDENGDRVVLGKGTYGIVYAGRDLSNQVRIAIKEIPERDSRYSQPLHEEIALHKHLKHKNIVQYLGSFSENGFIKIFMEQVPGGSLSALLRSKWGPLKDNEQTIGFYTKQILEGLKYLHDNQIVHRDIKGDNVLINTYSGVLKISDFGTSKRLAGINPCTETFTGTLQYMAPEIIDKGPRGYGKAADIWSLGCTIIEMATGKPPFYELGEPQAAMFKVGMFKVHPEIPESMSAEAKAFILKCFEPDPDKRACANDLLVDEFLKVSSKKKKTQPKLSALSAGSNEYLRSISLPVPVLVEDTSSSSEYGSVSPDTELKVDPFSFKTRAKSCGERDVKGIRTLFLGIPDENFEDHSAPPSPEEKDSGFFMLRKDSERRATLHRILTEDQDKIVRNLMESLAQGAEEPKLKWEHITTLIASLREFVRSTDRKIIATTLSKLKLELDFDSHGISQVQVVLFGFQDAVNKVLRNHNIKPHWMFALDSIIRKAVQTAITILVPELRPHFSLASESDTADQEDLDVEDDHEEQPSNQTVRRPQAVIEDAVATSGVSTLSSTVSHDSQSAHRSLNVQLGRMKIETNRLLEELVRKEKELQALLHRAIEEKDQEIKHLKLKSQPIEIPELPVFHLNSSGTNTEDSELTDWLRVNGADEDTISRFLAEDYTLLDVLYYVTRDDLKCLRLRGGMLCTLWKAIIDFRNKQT
- procedureDetails: ASK1 kinase activity inhibition assay (radiometric 33P incorporation into MBP)
- Assay type: biochemical
- reportedConditions: Table 3; 20 μM MBP, 10 μM 33P-ATP
outcomeMeasure: pIC50
Answers are plain numbers, as −log10 of the molar value.

Here is how some compounds turned out for pIC50.
- CC(C(=O)O)c1ccc(-c2ccc3c(c2)C(=O)N(c2cccc(-c4nncn4C(C)C)n2)C3)cc1 (stereo not drawn): 8.44
- O=C1c2cc(-c3ccc(-c4nnn[nH]4)cc3)ccc2CN1c1cccc(-c2nncn2C2CC2)n1: 8.26
- CC(C)n1cnnc1-c1cccc(N2Cc3ccc(N4CCC(C(=O)O)CC4)cc3C2=O)n1: 8.21
- CC(C)n1cnnc1-c1cccc(N2Cc3ccc(-c4ccc(Cl)cc4C(=O)O)cc3C2=O)n1: 7.46
- Cc1c(C(=O)O)cc(N)cc1-c1ccc2c(c1)C(=O)N(c1cccc(-c3nncn3C(C)C)n1)C2: 7.91
- Cc1cc(-c2ccc3c(c2)C(=O)N(c2cccc(-c4nncn4C(C)C)n2)C3)ccc1C(=O)O: 7.84
- CC(C)n1cnnc1-c1cccc(N2Cc3ccc(-c4ccc(-n5ncc(C(=O)O)c5N)cc4)cc3C2=O)n1: 8.09
- CC(C)n1cnnc1-c1cccc(N2Cc3ccc(-c4ccc(C(=O)O)cc4CO)cc3C2=O)n1: 8.29

For each of the items listed, what is its pIC50?
1. O=C(O)CC1CCN(c2ccc3c(c2)C(=O)N(c2cccc(-c4nncn4C4CC4)n2)C3)CC1
2. CC(C)n1cnnc1-c1cccc(N2Cc3ccc(N4CCCC(C(=O)O)C4)cc3C2=O)n1 (stereo not drawn)
3. CC(C)n1cnnc1-c1cccc(N2Cc3ccc(-c4ccc(F)c(C(=O)O)c4)cc3C2=O)n1
4. CC(C)n1cnnc1-c1cccc(N2Cc3ccc(-c4cccc(OCC(=O)O)c4)cc3C2=O)n1
5. CC(C)n1cnnc1-c1cccc(N2Cc3ccc(-c4ccc(C(C)(C)C(=O)O)cc4F)cc3C2=O)n1

1. 7.72
2. 7.95
3. 8.31
4. 8.28
5. 8.33
